Reported switch fluorescence ratio values are given for each entry in this list.
System: ATP;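 note: ATP exposure 15 min at 22 °C before imaging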
protocolDetails: switch fluorescence ratio, 500 uM ATP over buffer (Cy3 cluster intensity, sum of 5 cycles each) (fold (ratio)); higher = stronger signal-on switching upon ATP binding; sequences stand for … in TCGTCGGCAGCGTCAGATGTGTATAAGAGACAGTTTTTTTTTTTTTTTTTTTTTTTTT…TC
setupConditions: aptamer strand: ATP DNA aptamer (quencher-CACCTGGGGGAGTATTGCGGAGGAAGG + anchor), 100 nM annealed; ATP concentration: 500 uM
Answer field: number only, no words.

Some solved cases for reference:
TTTCATTGTA = 1.01
TATTATGATC = 1.03
CTAGCCCAGC = 1.02
TTCTGATGGT = 0.99
TGGAATTGTT = 1

// switch fluorescence ratio (ATP) for "CTGAAATGGT" = 0.993

The sequence "TCTACGCACT" , tested on ATP, showed switch fluorescence ratio of 2.62

Summary line: "GTAGGGGATC" , ATP, reported switch fluorescence ratio = 1.04

Here "TGGGGATACC" was tested on ATP, and its switch fluorescence ratio came to 0.987

The measured switch fluorescence ratio that "AAGGCACCGT" showed for ATP is 1.03

The observed switch fluorescence ratio for "GTTGAACGGT" when tested with ATP stands at 1.1

----------
System: ATP;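 note: ATP exposure 15 min at 22 °C before imaging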
protocolDetails: switch fluorescence ratio, 500 uM ATP over buffer (Cy3 cluster intensity, sum of 5 cycles each) (fold (ratio)); higher = stronger signal-on switching upon ATP binding; sequences stand for … in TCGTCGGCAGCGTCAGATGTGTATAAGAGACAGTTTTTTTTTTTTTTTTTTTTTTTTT…TC
setupConditions: aptamer strand: ATP DNA aptamer (quencher-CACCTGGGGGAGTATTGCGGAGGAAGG + anchor), 100 nM annealed; ATP concentration: 500 uM
metricName: switch fluorescence ratio
No unit in the answer, only the number.

AAAAGGGACG = 1.05

Considering "ATGCGTGGAA" , its switch fluorescence ratio with ATP was recorded as 1.02

# "CTTTGGCTGA" with ATP: switch fluorescence ratio is 0.998

Per the reported ATP data, "AATCAGTGTA" has switch fluorescence ratio of 1

----------
System: ATP;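 note: ATP exposure 15 min at 22 °C before imaging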
protocolDetails: switch fluorescence ratio, 500 uM ATP over buffer (Cy3 cluster intensity, sum of 5 cycles each) (fold (ratio)); higher = stronger signal-on switching upon ATP binding; sequences stand for … in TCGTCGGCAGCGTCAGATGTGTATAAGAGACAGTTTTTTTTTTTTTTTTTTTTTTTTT…TC
setupConditions: aptamer strand: ATP DNA aptamer (quencher-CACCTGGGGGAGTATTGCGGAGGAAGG + anchor), 100 nM annealed; ATP concentration: 500 uM
Consider the following sequences and their measured switch fluorescence ratio readings.
Lab note: record just the number, no unit beside it.

Some sequences with known switch fluorescence ratio results, for comparison:
GTGGAGTAAG = 1.01
TTAGGTAGGG = 0.988
TCGTGAGTTT = 0.996
ACTACTGGCT = 1.05
GGTTTTCGGG = 0.969
ACTGTGGGGA = 1.01
ACGGTCCTTT = 0.973
ATGGAAGTGC = 0.983

Reported switch fluorescence ratio ( "TAAGTTGGGA" ) = 0.98

Query "TTGGTAAGAC" yields switch fluorescence ratio of 1.14

----------
System: ATP;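 note: ATP exposure 15 min at 22 °C before imaging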
protocolDetails: switch fluorescence ratio, 500 uM ATP over buffer (Cy3 cluster intensity, sum of 5 cycles each) (fold (ratio)); higher = stronger signal-on switching upon ATP binding; sequences stand for … in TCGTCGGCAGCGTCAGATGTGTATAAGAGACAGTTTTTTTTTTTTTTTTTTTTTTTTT…TC
setupConditions: aptamer strand: ATP DNA aptamer (quencher-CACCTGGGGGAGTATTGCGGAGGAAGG + anchor), 100 nM annealed; ATP concentration: 500 uM
metricName: switch fluorescence ratio
API doc: respond with a numeric literal and nothing else, no unit.

Some solved cases for reference:
ACGCATTTGG = 1.12
CAAAAATGTT = 1.17
TTAGCTGGTG = 1.07
TCGTTAGGGG = 0.999
ATGGGGCATA = 1.01
AGTATGTGGG = 0.996

Given item "ATAGATGGTG" , the value recorded as its switch fluorescence ratio is 0.987

"GGCCGGGGGT" has a reported switch fluorescence ratio of 1.25
